Target: F508delCFTR (Homo sapiens, UniProt P13569, DEL508-508)
Construct: expressed in transfected cells; host or cells: CFBE41o- human lung-derived epithelial cells (CFBE41o-F508delCFTR-HRP), doxycycline-inducible
Sequence (P13569 with tags, fused parts or gaps DEL508-508): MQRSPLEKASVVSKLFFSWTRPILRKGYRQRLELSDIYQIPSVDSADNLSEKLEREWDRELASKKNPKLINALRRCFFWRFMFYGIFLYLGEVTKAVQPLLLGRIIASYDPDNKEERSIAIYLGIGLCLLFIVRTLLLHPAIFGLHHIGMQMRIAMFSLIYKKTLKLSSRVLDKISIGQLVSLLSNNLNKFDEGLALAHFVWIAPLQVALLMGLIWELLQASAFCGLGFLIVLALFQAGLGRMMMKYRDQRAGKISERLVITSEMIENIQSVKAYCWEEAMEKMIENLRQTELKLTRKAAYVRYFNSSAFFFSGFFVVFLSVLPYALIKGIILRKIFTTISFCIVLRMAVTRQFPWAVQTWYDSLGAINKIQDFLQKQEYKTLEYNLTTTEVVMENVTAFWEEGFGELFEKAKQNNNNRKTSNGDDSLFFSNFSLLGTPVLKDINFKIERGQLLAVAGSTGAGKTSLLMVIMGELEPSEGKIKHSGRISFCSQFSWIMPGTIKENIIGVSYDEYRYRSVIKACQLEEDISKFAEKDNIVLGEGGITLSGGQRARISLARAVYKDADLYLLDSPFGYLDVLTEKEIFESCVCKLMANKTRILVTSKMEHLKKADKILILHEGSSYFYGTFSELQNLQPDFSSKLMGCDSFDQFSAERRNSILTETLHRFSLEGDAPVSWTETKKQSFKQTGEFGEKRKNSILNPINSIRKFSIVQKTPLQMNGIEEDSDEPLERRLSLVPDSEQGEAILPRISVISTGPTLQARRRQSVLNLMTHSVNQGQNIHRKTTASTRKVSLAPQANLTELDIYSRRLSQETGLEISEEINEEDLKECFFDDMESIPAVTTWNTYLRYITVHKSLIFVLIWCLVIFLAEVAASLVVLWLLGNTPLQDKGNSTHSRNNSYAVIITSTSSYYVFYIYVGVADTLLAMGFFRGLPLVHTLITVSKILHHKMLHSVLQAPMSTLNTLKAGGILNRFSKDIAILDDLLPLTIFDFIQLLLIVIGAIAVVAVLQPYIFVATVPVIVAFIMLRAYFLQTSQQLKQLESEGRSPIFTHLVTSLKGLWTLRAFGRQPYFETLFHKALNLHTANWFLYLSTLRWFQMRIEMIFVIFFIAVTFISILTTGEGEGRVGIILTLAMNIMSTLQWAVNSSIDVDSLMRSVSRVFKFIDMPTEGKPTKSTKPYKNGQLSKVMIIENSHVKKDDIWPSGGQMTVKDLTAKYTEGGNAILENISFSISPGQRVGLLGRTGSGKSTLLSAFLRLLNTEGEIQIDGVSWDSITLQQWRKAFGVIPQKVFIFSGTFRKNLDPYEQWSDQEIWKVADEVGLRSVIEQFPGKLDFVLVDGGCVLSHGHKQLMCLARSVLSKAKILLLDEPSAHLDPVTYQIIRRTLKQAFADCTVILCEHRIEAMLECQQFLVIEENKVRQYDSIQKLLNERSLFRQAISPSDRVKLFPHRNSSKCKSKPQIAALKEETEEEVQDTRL
Assay: Cell Surface Expression-Horse Radish Peroxidase (CSE-HRP) assay, test compound with co-corrector
Assay type: cell-based
Settings: with 2 μM co-corrector
Outcome Measure: EC50

Compound | EC50
CCC1(C(=O)NS(=O)(=O)c2cccc3c2OCCO3)CCc2c(Cl)cccc21 (centres unmarked) | ≥ 10 µM
COc1ccccc1S(=O)(=O)NC(=O)C1CCc2c(Cl)cccc21 (centres unmarked) | ≥ 10 µM
CC1(C(=O)NS(=O)(=O)c2cccc3ccccc23)CCc2cccc(C3CCC3)c21 (centres unmarked) | < 3 µM
COc1ccc(C2CCC2)c2c1[C@H](C(=O)NS(=O)(=O)c1cccc3cnn(C)c13)CC2 (single isomer, unassigned) | < 3 µM
O=C(NS(=O)(=O)c1ccccc1F)C1CCc2c(Cl)cccc21 (centres unmarked) | 3 to 10 µM

Query: Look at this compound and give its reported EC50. COc1ncc(Br)c2c1C(C(=O)NS(=O)(=O)c1cccc3ccccc13)CC2 (centres unmarked)
Result: 3 to 10 µM

Query: Look at this compound and give its reported EC50. CCC1(C(=O)NS(=O)(=O)c2cccc(F)c2F)CCc2c(Cl)cccc21 (centres unmarked)
Result: < 3 µM

Query: Look at this compound and give its reported EC50. COc1ccc(C2CC2)c2c1C(C(=O)NS(=O)(=O)c1cccc3ccccc13)CCC2 (centres unmarked)
Result: < 3 µM

Attribution: patent US20180244611A1
